Cited source for all entries: patent US20190016746A1

Test system: prokaryotic ribosome (E. coli S30 extract)
Experiment: Prokaryotic in vitro translation inhibition, E. coli S30 extract with pBESTluc plasmid
Assay type: biochemical
Details: Table 4; read-out: Translation Inhibition IC50^Pro
Quick reference: IC50 of the listed items.
Kindly answer with a numeric value in µM, unit omitted.

Q) Tell me IC50 reported for `N[C@H]1[C@@H](O[C@H]2[C@H](O)[C@@H](O)[C@H](N)C[C@@H]2N)OC(CO)=C[C@@H]1O`
A) 82.3

Q) Note down IC50 recorded for N[C@H]1[C@@H](O[C@H]2[C@H](O)[C@@H](O)[C@H](N)C[C@@H]2N)O[C@H](CO)[C@@H](O)[C@@H]1O [Paro., paromamine, reference compound]
A) 14

Now consider the entry below.
Q) Specify measured IC50 for NC[C@H]1O[C@@H](OC2C(O)[C@H](N)CC(N)[C@H]2O[C@H]2OC(CO)[C@@H](O)C(O)C2N)C(O)C1O (stereo partly drawn) [NB30, reference compound] .
A) 0.45
